Molecular target: ScBzz1-D2
Assay: SPOT peptide array binding signal intensity (averaged, normalized) (arbitrary units (background-subtracted, floor 0; scale differs between SH3 domains)); higher = stronger binding of the SH3 domain to the peptide
ASSAY METRIC: SPOT peptide array binding signal intensity
Give the value as a plain number.

*Q* Entry `HPRFVSPRIPSRIVK` : reported SPOT peptide array binding signal intensity = ?
*A* 73.5

*Q* Note, next up: `RMVRRRPLRVQFSAR`
*A* 238

*Q* Note, next up: `LFMKGTPEFPKSGFS`
*A* 11.5

Provenance of the data: the supplement of paper PMC4466140
